Source of measurements: PubChem BioAssay (NCI)

Experiment: NCI Yeast Anticancer Drug Screen. Data for the cln2 rad14 strain (AID 165);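 also: 0% = growth equal to vehicle treated cultures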
Conditions: S. cerevisiae cln2 rad14 strain, at 50.0 µM, hits give high values
About 79,000 compounds went through this panel and 15% of them were active in at least one assay; those are over-represented in the sample as a whole.
Label scheme for growth inhibition: lower than -10% is False, -10% and above is True.

QUERY: Does O=C(OC1COC(OC(=O)c2ccc([N+](=O)[O-])cc2)C(OC(=O)c2ccc([N+](=O)[O-])cc2)C1OC(=O)c1ccc([N+](=O)[O-])cc1)c1ccc([N+](=O)[O-])cc1 (stereo not given) have a reported growth inhibition of at least -10%?
RESULT: False

QUERY: Answer whether growth inhibition of CCCCCc1c(C)nc(N)[nH]c1=O is greater than or equal to -10%.
RESULT: False

QUERY: Please check the record CNNC1=NS(=O)(=O)c2cc(C(=O)OC)c(Cl)cc2S1 and state if its growth inhibition is at or above -10%.
RESULT: True

QUERY: I'd appreciate it if you could say whether C[n+]1c(-c2ccc(Cl)c(Cl)c2)c2cc(N)ccc2c2ccccc21 has growth inhibition at least equal to -10%.
RESULT: True

QUERY: Is growth inhibition at least -10%? Consider NC(=O)COc1ccc(Cl)cc1Cl
RESULT: True

QUERY: Does growth inhibition meet or surpass -10% for CCCC(C)NC(=O)c1ccc(Cl)c(Cl)c1 (stereo not given) ?
RESULT: True

QUERY: Given the entry CCC1=CC(C=O)N(C(C)=O)c2ccccc21 (stereo not given) , answer whether its growth inhibition meets or surpasses -10%.
RESULT: True

QUERY: Is growth inhibition for COC(=O)c1ccc(Cc2ccc(C(=O)OC)o2)o1 at or above -10%?
RESULT: False

QUERY: I'd appreciate it if you could say whether CCOC(=O)N(C)Cc1ccc(Cl)cc1 has growth inhibition at least equal to -10%.
RESULT: False

QUERY: Kindly determine if growth inhibition recorded for O=[N+]([O-])c1ccc(C=Nc2ccccc2)cc1 is above or exactly -10%.
RESULT: True

QUERY: Quick check, growth inhibition >= -10%? CCOC1C(=O)C=COC1C(C)C (stereo not given)
RESULT: True

QUERY: I'd appreciate it if you could say whether COC(=O)c1ccccc1C(=O)c1ccccc1 has growth inhibition at least equal to -10%.
RESULT: True

QUERY: # bool: growth inhibition of C#CCN(C)C(C)=O >= -10%
RESULT: True

QUERY: Identify whether the reported growth inhibition of the following molecule is -10% or greater: O=C(O)/C=C/c1ccccc1Cl
RESULT: False

QUERY: Quick check, growth inhibition >= -10%? Cc1nn2c(-c3ccccc3)cnnc2c1-c1ccccc1
RESULT: False

QUERY: Kindly determine if growth inhibition recorded for O=C1C(Cl)=C(Nc2ccc([N+](=O)[O-])cc2)C(=O)c2ccccc21 is above or exactly -10%.
RESULT: False

QUERY: Evaluate CC(C)=NOC(=O)Nc1cccc2c1OCO2 : growth inhibition at minimum -10%?
RESULT: False

QUERY: // inclusive: growth inhibition at least -10%? input: CC(c1cccc2ccccc12)/[N+]([O-])=C/c1ccccc1 (stereo not given)
RESULT: True

QUERY: Does the molecule CCC1([N+](=O)[O-])COC2(CCCCC2)OC1 have recorded growth inhibition that is -10% or more?
RESULT: True

QUERY: Can COc1ccc(C(=O)/C=C/c2ccc(OCC(=N)N)cc2)cc1 be said to have growth inhibition at or above -10%?
RESULT: False

QUERY: Kindly determine if growth inhibition recorded for NC(=O)CC(N)=O is above or exactly -10%.
RESULT: True

QUERY: Decide: growth inhibition of C=C(C)COc1ccc(C2OCC(CC)C(CCC)O2)cc1 (stereo not given) >= -10%?
RESULT: False

QUERY: Would you say Cc1nc2c(c(-c3ccc(Cl)cc3)n1)Cc1c(ccc3ccccc13)O2 shows growth inhibition at minimum -10%?
RESULT: True

QUERY: Evaluate O=C(NC(=O)c1ccc([N+](=O)[O-])cc1)Nc1ccccc1 : growth inhibition at minimum -10%?
RESULT: False

QUERY: Quick check, growth inhibition >= -10%? O=C(NCCc1ccccc1)c1ccc2ccccc2n1
RESULT: True

QUERY: Reported growth inhibition reaches at least -10% for CCCc1cc2c(cc1CSc1ccccc1C(=O)O)OCO2 ?
RESULT: False

QUERY: Is growth inhibition at least -10%? Consider Cc1cc(-c2cc(C)on2)no1
RESULT: False

QUERY: Does the molecule CC1(CCC(=O)c2ccc3c(c2)OCO3)OCCO1 have recorded growth inhibition that is -10% or more?
RESULT: True

QUERY: Form field: growth inhibition at least -10%? Entry: CC1(C)CCNc2ccccc2S1
RESULT: False

QUERY: Please check the record COC1CC(NC(=O)C(F)(F)F)C(O)C(CNC(=O)C(F)(F)F)O1 (stereo not given) and state if its growth inhibition is at or above -10%.
RESULT: False

QUERY: hey, is growth inhibition for this one >= -10%? CCCC(/C(C)=N/NC(N)=O)C1CCCCC1 (stereo not given)
RESULT: True

QUERY: Hello, I need to know if N#CC(N)=NC1CCC(C2CCC(O)CC2)CC1 (stereo not given) has measured growth inhibition not below -10%. Thanks!
RESULT: True

QUERY: Determine whether measured growth inhibition meets or exceeds -10% for O=C(NCC(O)CNC(=O)C(F)(F)F)C(F)(F)F
RESULT: True

QUERY: Quick check: does CCOC(=O)OC1C(OC)OC2COC(c3ccccc3)OC2C1OC(=O)OCC (stereo not given) have growth inhibition greater than or equal to -10%?
RESULT: False

QUERY: State whether the measured growth inhibition reaches -10%, counting equality as reaching it, for Nc1cccc(C(F)(F)F)c1N
RESULT: False

QUERY: growth inhibition >= -10% for Nc1nc2c(-c3ccc([N+](=O)[O-])cc3)nnn2c2cccc(Cl)c12 ?
RESULT: True

QUERY: Reported growth inhibition reaches at least -10% for O=Cc1ccc2ccocc1-2 ?
RESULT: False

QUERY: Given Cc1ccccc1C1CCCCC1OS(C)(=O)=O (stereo not given) , state whether its growth inhibition is at least -10%.
RESULT: True

QUERY: For this molecule, is measured growth inhibition -10% or higher? Cc1ccc(Nc2nc(C)c(C(=O)C/C(=N/NC(N)=S)C(=O)Nc3cc(Cl)cc(Cl)c3)s2)cc1
RESULT: True

QUERY: Has CN=S(=O)(OCCCCOS(=O)(=NC)c1ccc(C)cc1)c1ccc(C)cc1 (stereo not given) a recorded growth inhibition greater than or equal to -10%?
RESULT: False

QUERY: Hello, I need to know if CCCCCCCCCCCCOc1ccc(Sc2ccc([N+](=O)[O-])cc2)cc1 has measured growth inhibition not below -10%. Thanks!
RESULT: False

QUERY: Does N#CC1=C(c2ccccc2)NNC(c2ccc(Cl)cc2)CC1=O (stereo not given) have a reported growth inhibition of at least -10%?
RESULT: True

QUERY: Exam item: decide whether the reported growth inhibition for Cc1ccc(C(C)(C#N)Nc2ccccc2)cc1 (stereo not given) is at least -10%.
RESULT: False

QUERY: Quick check, growth inhibition >= -10%? CCCC(O)(c1ccccc1)c1ccccc1
RESULT: True

QUERY: Is it the case that CCOC(CN(N=O)c1ccccc1C(C)C)OCC has growth inhibition reaching or exceeding -10%?
RESULT: False

QUERY: Would you say NC(=O)[C@@H]1CCCN1C(=O)c1cccnc1 shows growth inhibition at minimum -10%?
RESULT: False

QUERY: Please indicate if the recorded growth inhibition for Cc1n[nH]c2ccccc2c1=O meets or exceeds -10%.
RESULT: False

QUERY: Is it the case that O=CSC(=Nc1ccc(Cl)cc1)NC(=O)COc1ccc(Cl)cc1 has growth inhibition reaching or exceeding -10%?
RESULT: False

QUERY: Check the entry N/N=C(\c1ccccc1)C(Nc1ccccc1)c1ccccc1 (stereo not given) : does growth inhibition equal or exceed -10%?
RESULT: False

QUERY: Does the molecule C[C@]12C(=O)OC[C@H](c3ccccc3)N1C(=O)N(Cc1ccccc1)[C@@H]2CO have recorded growth inhibition that is -10% or more?
RESULT: True

====

I'd appreciate it if you could supply growth inhibition values for the items below.
Experiment: NCI Yeast Anticancer Drug Screen. Data for the mlh1 rad18 strain (AID 175)
Conditions: S. cerevisiae mlh1 rad18 strain growth inhibition; at 50.0 µM; hits give high values
This is part of a sample that, as a whole, favours compounds with a hit. Of some 79,000 tested, about 15% had one in any assay.
The figure you give is taken to be in %; do not add the unit.

growth inhibition recorded for this compound, COc1ccc(-c2cc(C(=O)O)c3cc4ccccc4cc3n2)cc1Br , is 10.9

Input Nc1ccc(OCC(O)CN2CCN(c3ccccc3)CC2)cc1 (stereo unspecified) . Output growth inhibition: 4.1

Entry under test: CC(=O)OC1CCC2(C)C(CCC34OC23CCC2(C)C(C(C)CCCC(C)C)CCC24C)C1(C)C (stereo unspecified) . Its growth inhibition was 28.4

Looking up C/C(Cl)=C/CC1(C)CCCC(C)(C)CC1=O (stereo unspecified) , I found its growth inhibition recorded as -10.3

Recorded growth inhibition (compound CCOC(=O)C(=CNc1cc(OC)cc2cccnc12)C(=O)OCC ): -11.4

The recorded growth inhibition for COc1cc(-c2c(C)c(C)nc(OC)c2C#N)cc(OC)c1OC is -17.9
